Tested on: GT-1a of NS5A Replicon
MEASUREMENT DESCRIPTION: HCV double reporter gene (Renilla luciferase) replicon assay, GT-1a
Format: cell-based, Hepatitis C virus (HCV)
RUN CONDITIONS: Hepatitis C virus, GT1A, GT-1a replicon; class symbols; read-out: EC50 For GT-1a of NS5A Replicon
Measured EC50 of individual entries

COC(=O)N[C@H](C(=O)N1CC(OC(=O)N2Cc3cc4c(cc3C2)OCO4)CC1c1nc(-c2ccc3c(c2)C(F)(F)c2cc(-c4c[nH]c([C@@H]5CCCN5C(=O)[C@@H](NC(=O)OC)C(C)C)n4)ccc2-3)c[nH]1)C(C)C (stereo partly drawn)    0.001 to 0.999 nM

# lookup: GT-1a of NS5A Replicon EC50, key = COC(=O)N[C@H](C(=O)N1CC2(C[C@H]1c1ncc(-c3ccc(-c4ccc(-c5c[nH]c([C@@H]6C=CCN6C(=O)[C@H](NC(=O)OC)c6ccccc6)n5)cc4)cc3)[nH]1)OCCO2)C(C)C 0.001 to 0.999 nM

Quote GT-1a of NS5A Replicon EC50 for entry COC(=O)N[C@H](C(=O)N1CCC[C@H]1c1ncc(-c2ccc(-c3ccc(-c4cnc([C@@H]5CCCN5C(=O)[C@@H](NC(=O)N(C)C)C(C)C)[nH]4)cc3)cc2)[nH]1)C(C)C . 0.001 to 0.999 nM

State EC50 (GT-1a of NS5A Replicon) of COC(=O)N[C@H](C(=O)N1CC=CC1c1nc(-c2ccc(-c3ccc(-c4c[nH]c([C@@H]5CCCN5C(=O)C5(NC(=O)OC)CCCCC5)n4)cc3)cc2)c[nH]1)C(C)C (stereo partly drawn) . 0.001 to 0.999 nM
